Molecular target: recombinant human MMP-13 (Homo sapiens)
Assay: MMP selectivity assay, MMP-13
Type: biochemical
Conditions: Table 2 selectivity profile
MEASURE NAME: IC50

Cc1cc(COc2ccc(Sc3ccncc3C3NC(=O)NC3=O)c(F)c2)ccn1 (stereo not shown)	100 to 1000 nM
O=C1NC(=O)C(c2sccc2Sc2ccc(OCc3cccc(CO)c3)cc2)N1 (stereo not shown)	1000 to 10000 nM
Cc1cc(COc2ccc(Sc3cnn(C)c3C3NC(=O)NC3=O)cc2)ccn1 (stereo not shown)	100 to 1000 nM
O=C1NC(=O)C(c2sccc2Sc2ccc(OCc3ccccc3CO)cc2)N1 (stereo not shown)	> 10000 nM
NC(=O)c1cccc(COc2ccc(Sc3ccncc3C3NC(=O)NC3=O)cc2)c1 (stereo not shown)	100 to 1000 nM

Batch request: IC50 per item, same order as input.
1. Cc1cc(COc2ccc(Sc3ncoc3C3NC(=O)NC3=O)cc2)ccn1 (stereo not shown)
2. Cc1cc(COc2ccc(Sc3ncn(C)c3C3NC(=O)NC3=O)cc2)ccn1 (stereo not shown)
3. O=C1NC(=O)C(c2ccncc2Sc2ccc(OCc3ccccc3CO)cc2)N1 (stereo not shown)
4. Cc1cc(COc2ccc(Sc3ccncc3C3NC(=O)NC3=O)cc2)ccn1 (stereo not shown)
5. Cc1cc(COc2ccc(Sc3ccsc3C3NC(=O)NC3=O)cc2)ccn1 (stereo not shown)
6. O=C1NC(=O)C(c2ccncc2Sc2ccc(OCc3cccc(CO)c3)cc2)N1 (stereo not shown)
7. O=C1NC(=O)C(c2cnccc2Sc2ccc(OCc3cccc(O)c3)cc2)N1 (stereo not shown)

Result:
1: 100 to 1000 nM; 2: 100 to 1000 nM; 3: > 10000 nM; 4: 1000 to 10000 nM; 5: 10 to 100 nM; 6: 1000 to 10000 nM; 7: 1000 to 10000 nM

Hi! Can you tell me IC50 for each of these compounds?
1. Cc1cc(COc2ccc(Sc3ccncc3C3NC(=O)NC3=O)cc2C)ccn1 (stereo not shown)
2. CCC1(c2cnccc2Sc2ccc(OCc3cccc(C)c3)cc2)NC(=O)NC1=O (stereo not shown)
3. Cc1cc(COc2ccc(Sc3ccncc3C3NC(=O)NC3=O)c(Cl)c2)ccn1 (stereo not shown)
4. O=C1NC(=O)C(c2cnccc2Sc2ccc(OCc3cccc(CO)c3)cc2)N1 (stereo not shown)

Result:
1: 100 to 1000 nM; 2: 100 to 1000 nM; 3: 100 to 1000 nM; 4: 1000 to 10000 nM
